Data provenance: BigSolDB 2.1

# ASSAY_CONTEXT: in water, 318.15 K
MEASUREMENT_LABEL: solubility (mole fraction)

structure_smiles=NC12CC3CC(C1)CC(O)(C3)C2 result=0.0413

###

# ASSAY_CONTEXT: in n-propanol, 303.15 K
MEASUREMENT_LABEL: solubility (mole fraction)

structure_smiles=NC12CC3CC(C1)CC(O)(C3)C2 measurement_label="solubility (mole fraction)" quantitative_readout=0.2

###

# ASSAY_CONTEXT: in THF, 328.15 K
MEASUREMENT_LABEL: solubility (mole fraction)

structure_smiles=NC12CC3CC(C1)CC(O)(C3)C2 measurement_label="solubility (mole fraction)" quantitative_readout=0.049
